B1: wild-type US28 receptor with a C-terminal natural peptide tag (US28-NP) [human cytomegalovirus (HCMV)] / LgBiT-Gαq [not stated] (parent)
chain 1: MTPTTTTAELTTEFDYDEDATPCVFTDVLNQSKPVTLFLYGVVFLFGSIGNFLVIFTITWRRRIQCSGDVYFINLAAADLLFVCTLPLWMQYLLDHNSLASVPCTLLTACFYVAMFASLCFITEIALDRYYAIVYMRYRPVKQACLFSIFWWIFAVIIAIPHFMVVTKKDNQCMTDYDYLEVSYPIILNVELMLGAFVIPLSVISYCYYRISRIVAVSQSRHKGRIVRVLIAVVLVFIIFWLPYHLTLFVDTLKLLKWISSSCEFERSLKRALILTESLAFCHCCLNPLLYVFVGTKFRQELHCLLAEFRQRLFSRDVSWYHSMSFSRRSSPSRRETSSDTLSDEVCRVSQIIP
chain 2: MTLESIMACCLSEEAKEARRINDEIERQLRRDKRDARRELKLLLLGTGESGKSTFIKQMRIIHGSGYSDEDKRGFTKLVYQNIFTAMQAMIRAMDTLKIPYKYEHNKAHAQLVREVDVEKVSAFENPYVDAIKSLWNDPGIQECYDRRREYQLSDSTKYYLNDLDRVADPAYLPTQQDVLRVRVPTTGIIEYPFDLQSVIFRMVDVGGQRSERRKWIHCFENVTSIMFLVALSEYDQVLVESDNENRMEESKALFRTIITYPWFQNSSVILFLNKKDLLEEKIMYSHLVDYFPEYDGPQRDAQAAREFILKMFVDLNPDSDKIIYSHFTCATDTENIRFVFAAVKDTILQLNLKEYNLV

Variants of: B1
Assay: NanoBiT nLuc complementation assay in live HEK-293 cells (Nano-Glo live cell assay), area under the curve
Conditions: with LgBiT-Gαq, 18 hours post-transfection media exchanged with serum-free DMEM, 6 hours later luciferase activity monitored for 60 minutes, parent: 2.9e+07, read off a plot
Assign response (Arbitrary Units) to each entry below.
Please give the numeric answer without any surrounding text.

For record chain 1 R225A the listed response (Arbitrary Units) is 1.6e+07

For record chain 1 K223A the listed response (Arbitrary Units) is 1.7e+07

For record chain 1 S218A the listed response (Arbitrary Units) is 1.8e+07

For record chain 1 S220A the listed response (Arbitrary Units) is 3e+07

For record chain 1 D128A R129A Y130A the listed response (Arbitrary Units) is 6e+06
